As shown below, each of these molecules has a reported growth value.
System: NCI-H322M lung
assay-info: NCI-60 one-dose screen, 48 h (100 = growth as untreated, 0 = no growth, -100 = all killed)
run-parameters: 10 µM unless noted
The panel holds about 83,000 compounds, 20% with a hit somewhere; the sample as a whole holds those more often. Active and inactive are the calls of the source. The calls were made as follows: active = growth percent below 10; inactive = the rest.

| molecule | growth |
| --- | --- |
| CC(C)OC(=O)[C@H](C)N[P@@](=O)(OC[C@@]1(C)O[C@@H](n2cc(F)c(N)nc2=O)C[C@@H]1O[P@](=O)(N[C@@H](C)C(=O)OC(C)C)Oc1ccccc1)Oc1ccccc1 | 102% (inactive) |
| C/C=C/C/C=C/[C@H](C)C[C@H](O)[C@@H]1C[C@@H]2O[C@H]2/C=C/[C@H](O)[C@@H](O)/C=C/C[C@H](C)CC(=O)O1 | 88.9% (inactive) |
| COc1ccc2cnc(N)c(C#Cc3cc(C(=O)Nc4ccc(CN5CCN(C)CC5)c(C(F)(F)F)c4)cnc3C)c2c1 | 70.3% (inactive) |
| COc1cccc2c1nc1cccc(OC)c1[n+]2[O-] | 78.6% (inactive) |
| COc1cc(N2C(=O)C=CC2=O)ccc1N1C(=O)C=CC1=O | 116% (inactive) |
| CCOC(=O)CNS(=O)(=O)CC(=O)c1ccccc1 | 87.9% (inactive) |
| CC1(C)N=C(N)N=C(N)N1c1cccc(CCCCOc2ccccc2)c1 | 35.6% (inactive) |
| CSCc1ncc(-c2ccc(C(F)(F)F)cc2)c(NC2CCCCCC2)n1 | 97.9% [25 µM] (inactive) |
| C=CCSc1nnc(COc2ccc3c(C)c(Cc4ccccc4)c(=O)oc3c2C)o1 | 99.2% (inactive) |
| COc1cc2cn3c4ccc(O)cc4[nH]c(=O)c3c2cc1OC | 1.3% (active) |
| COc1ccc(-c2nc(SCC(C)C)nc(Nc3ccccc3)c2C#N)cc1 | 70.8% (inactive) |
| c1ccc2[nH]c(-c3ccc(OCCCCCOc4ccc(-c5nc6ccccc6[nH]5)cc4)cc3)nc2c1 | 72.7% (inactive) |
| CC(C)CCCCCOC(=O)c1ccccc1SSc1ccccc1C(=O)OCCCCCC(C)C | 132% (inactive) |
| CC1C(=O)CCCC1=O | 99.4% (inactive) |
| c1ccc(Nc2ccccn2)cc1 | 106% (inactive) |
| C=C1CCC2C3(C)COC(c4ccccc4)OC3CCC2(C)C1C/C=C1/C(=O)OCC1O (stereo not given) | 87.3% (inactive) |
| O=C(CN1CCN(c2cccc(Cl)c2)CC1)N1CCN(c2nnc(-c3ccc(Cl)cc3)c(-c3ccc(Cl)cc3)n2)CC1 | 77.8% (inactive) |
| O=C(Nc1ccc(-n2cc(-c3ccncc3)c(-c3ccc(Cl)c(O)c3)n2)cc1)c1ccc(Cl)c(C(F)(F)F)c1 | 37.2% (inactive) |
| O=C(NCCCl)Nc1nccnc1OCc1ccc(F)cc1 | 104% (inactive) |
| CC(C)OC(=O)c1ccc2n1CCCc1cnc(Nc3ccccc3)nc1-2 | 116% (inactive) |

====

As shown below, each of these compounds has a reported growth value.
Test system: HCT-15 colon
assay-info: NCI-60 one-dose screen, 48 h (100 = growth as untreated, 0 = no growth, -100 = all killed)
run-parameters: 10 µM unless noted
Compounds without any hit were thinned out: in the full panel of roughly 83,000, 20% have a hit.

| smiles-data | value-unit | growth |
| --- | --- | --- |
| O=C(N/N=C/c1coc2ccccc2c1=O)c1cc2oc(-c3ccccc3)cc2[nH]1 | % | 100 |
| Cc1ccc(C(=O)Nc2ccc(CN3CCN(C)CC3)c(C(F)(F)F)c2)cc1C#Cc1cnc(N)c2ccc(C#N)cc12 | % | 23.2 |
| COc1cc2cn3c4ccc(O)cc4[nH]c(=O)c3c2cc1OC | % | 23.3 |
| Cc1ccc(OCCn2ccc(=O)n(CCOc3ccc(Cl)cc3C(=O)c3cc(C)cc(C)c3)c2=O)cc1 | % | 27.8 |
| C/C(=N\Nc1ccc(Cl)cn1)c1ccc2ccccc2n1 | % | 13.4 |
| CCS(=O)(=O)OCCO[C@H]1Cc2cc3ccc(=O)oc3cc2OC1(C)C | % | 109 |
| C/C=C/C/C=C/[C@H](C)C[C@H](O)[C@@H]1C[C@@H]2O[C@H]2/C=C/[C@@H]2OC(C)(C)O[C@H]2/C=C/C[C@H](C)CC(=O)O1 | % | 19.7 |
| N=C(c1ccccc1)N(Cc1ccccc1)Cc1ccccc1 | % | 74.8 |
| CCN(CCO)CCNc1ccc(C)c2sc3cc(OC)ccc3c(=O)c12 | % | 41.1 |

====

Tested on: NCI-H522 lung
assay-info: NCI-60 one-dose screen, 48 h (100 = growth as untreated, 0 = no growth, -100 = all killed)
run-parameters: 10 µM
Compounds without any hit were thinned out: in the full panel of roughly 83,000, 20% have a hit.
As shown below, each of these compounds has a reported growth value.
metric: growth (%)

| compound | assay-result |
| --- | --- |
| COC(=O)c1ccc2[nH]c(O)c(C(=Nc3ccc(N(C)C(=O)CN4CCN(C)CC4)cc3)c3ccc(C)cc3)c2c1 | -33.6 |
| COc1cccc2c1nc1cccc(OC)c1[n+]2[O-] | 20.2 |
| c1ccc2[nH]c(-c3ccc(OCCCCCOc4ccc(-c5nc6ccccc6[nH]5)cc4)cc3)nc2c1 | 30.9 |
| CCCC(=O)NNc1[nH]c(-c2cc(OC)c(OC)c(OC)c2)cc1C(=O)OCC | 105 |
| CCCCCCCCc1ccc(CCC(N)(CO)CO)cc1 | -51.7 |
| COC(=O)c1ccc2[nH]c(O)c(C(=Nc3ccc(N(C)C(=O)CN4CCN(C)CC4)cc3)c3ccc(CCO)cc3)c2c1 | 33.3 |
| Cc1c(Cc2ccccc2)c(=O)oc2c(C)c(OCc3n[nH]c(=S)o3)ccc12 | 61 |
| COC(=O)/C(Br)=C/c1c[nH]c2ccc(Br)cc12 | 63.9 |
| O=C(O)c1ccc(-c2nn(-c3ccc(C(=O)O)cc3)cc2CNc2ccc(Br)cc2)cc1 | 85.4 |
| CCOC(=O)CNS(=O)(=O)CC(=O)c1ccccc1 | 89.8 |
| Cc1cc2c(-c3nc4ccccc4n3C)c(O)c(O)cc2c(O)c1-c1c(C)cc2c(-c3nc4ccccc4n3C)c(O)c(O)cc2c1O | 41.4 |
| CC1(C)C(O)NC(Cl)=C(C#N)C1(C#N)C#N (stereo unspecified) | 91.5 |
| COc1ccc(Oc2[nH]n(C3=Nc4ccccc4Sc4ccccc43)c(=O)c2C#N)cc1 | 74.9 |
| COc1ccc2nc3cc(Cl)ccc3c(NCCCNC(C)=O)c2c1 | 52.5 |
| CCCCCCNc1nc(N2CCOCC2)c2[nH]c(NCCCCCC)nc2n1 | -79.8 |
| CCOC(=O)c1c2c(cn1Cc1ccccc1)-c1oncc1CC2 | 99 |
| CC(=O)Nc1nc(C)c(C(=O)N/N=C/c2cccs2)s1 | 94.8 |
| Nc1ccc(S(=O)(=O)c2ccc(NO)cc2)cc1 | 79.4 |
| COc1cc2c(/C=C3\C(=O)Nc4ccc(Br)cc43)c(Cl)n(C)c2cc1C | -3.92 |
| COc1cc(CNC(=O)CCCC/C=C/C(C)C)ccc1OCc1nnc(Nc2ccccc2F)o1 | 60.3 |
| CCCCN(CCC)CCCCCCCCCCN1CCCc2ccccc21 | 62 |

====

System: SR leukemia
assay-info: NCI-60 one-dose screen, 48 h
run-parameters: 10 µM unless noted
Compounds without any hit were thinned out: in the full panel of roughly 83,000, 20% have a hit. Activity calls are given as the source filed them. How the source made its calls: active means growth percent below 10; inactive means the rest.
Labels: 1 for active, -1 for inactive

| molecule | target-or-test-system | category-label |
| --- | --- | --- |
| COc1cc(-c2cc3cnccc3c3nc(N)c4ccncc4c23)cc(OC)c1OC | SR leukemia | -1 |
| [N-]=[N+]=Nc1ncc(-c2ccc(C(F)(F)F)cc2)c(NC2CCCCCC2)n1 | SR leukemia | 1 |
| CC(=O)/C(=C\c1c(-c2ccccc2)[nH]c2ccccc12)S(=O)(=O)c1ccccc1 | SR leukemia | 1 |
| CC(C)(C)C(=O)CCCCCCCC/C=C/CCCC(O)c1ccco1 (stereo not given) | SR leukemia | -1 |
| C[C@H]1C[C@@H](n2cnc3c(N)nccc32)[C@H](O)[C@@H]1O | SR leukemia | 1 |

====

As shown below, each of these molecules has a reported growth value.
System: U251 CNS
assay-info: NCI-60 one-dose screen, 48 h (100 = growth as untreated, 0 = no growth, -100 = all killed)
run-parameters: 10 µM unless noted
This is part of a sample that, as a whole, favours compounds with a hit. Of some 83,000 tested, about 20% had one in any assay. Calls of active or inactive are those of the source. Rule for the calls: active = growth percent below 10; inactive = the rest.
metric: growth

| molecule | target-or-test-system | assay-result |
| --- | --- | --- |
| O=C(/C=C/c1cccc(O)c1)c1cccc(-n2cc(-c3ccc(Cl)cc3)[nH]c2=O)c1 | U251 CNS | -87.9% (active) |
| O=C(CCl)NC1c2ccccc2Oc2ccccc21 | U251 CNS | 47.7% (inactive) |
| C/C=C(/C)C(=O)OC1C=C(CO)C(=O)C(OC(=O)/C(C)=C\C)C1C(C)C (stereo unspecified) | U251 CNS | -73.8% (active) |
| N#Cc1c(N)nc(Nc2nc3ccccc3[nH]2)nc1-c1ccc(Cl)cc1 | U251 CNS | 97.6% (inactive) |
| N=C(N)N=Nc1ccc(NN=C(N)N)c2ccccc12 | U251 CNS | 35.5% (inactive) |
| CSCc1ncc(-c2ccc(C(F)(F)F)cc2)c(NC2CCCCCC2)n1 | U251 CNS | 68.5% [25 µM] (inactive) |
| Cc1cc2c(-c3nc4ccccc4[nH]3)c(O)c(O)cc2c(O)c1-c1c(C)cc2c(-c3nc4ccccc4[nH]3)c(O)c(O)cc2c1O | U251 CNS | -58.7% (active) |
| CC(C)(CNC1CCCCC1)OC(=O)c1ccccc1 | U251 CNS | 100% (inactive) |
| CCOC1=C(Cl)C(=O)C(OCC)=C(Cl)C1=O | U251 CNS | 104% (inactive) |
| O=C(OCC1CC2(Cl)C(Cl)=C(Cl)C1(Cl)C2(Cl)Cl)C1C(C(=O)OCC2CC3(Cl)C(Cl)=C(Cl)C2(Cl)C3(Cl)Cl)C2(Cl)C(Cl)=C(Cl)C1(Cl)C2(Cl)Cl (stereo unspecified) | U251 CNS | 99.2% (inactive) |
| CCOc1ccc(Br)cc1/C=C(\C#N)c1ccc([N+](=O)[O-])cc1 | U251 CNS | 67.3% (inactive) |
| CCCCCCCCCC[N+](C)(C)C | U251 CNS | -75.4% (active) |
| CCC(C)(C)c1ccc(OCCCCCCN2CCNCC2)cc1 | U251 CNS | 18.8% (inactive) |
| CCOc1ccc2nc3ccc(Cl)cc3nc2c1 | U251 CNS | 96.4% (inactive) |
| C=CN(C)S(C)(=O)=O | U251 CNS | 19.2% (inactive) |
| COc1ccc(-c2nc(N)n(C(=S)Nc3ccccc3)n2)cc1 | U251 CNS | 103% (inactive) |
| CC(=O)Nc1ccc(C(=O)/C=C/c2ccc(N(C)C)cc2)cc1 | U251 CNS | 93.9% (inactive) |
| COc1ccc(Oc2[nH]n(C3=Nc4ccccc4Sc4ccccc43)c(=O)c2C#N)cc1 | U251 CNS | 107% (inactive) |
| COC(=O)[C@@H]1[C@H](O)[C@H](C)[C@H](O)[C@H](C)/C=C\C=C(C)C(=O)Nc2c(C)c(OC(C)=O)c3c(c2O)C(=O)C(C)=C2OCOC(=C23)C(C)=C[C@@](C)(O)[C@H](O)[C@@H](C)[C@H]1OC(C)=O | U251 CNS | 111% (inactive) |
| COC1=CC(c2ccc[nH]2)=N/C1=C\c1[nH]c(C)c(C(=O)CCCCC(=O)NC(C)(C)C)c1C | U251 CNS | 22% (inactive) |
| Brc1ccc(-c2nc3ccccc3s2)cc1 | U251 CNS | 96.1% (inactive) |
